Biological target: GLP-1R (Homo sapiens, UniProt P43220)
Construct: host or cells: GLP-1R CRE-bla CHO-K1 cells
Sequence (P43220 24-463): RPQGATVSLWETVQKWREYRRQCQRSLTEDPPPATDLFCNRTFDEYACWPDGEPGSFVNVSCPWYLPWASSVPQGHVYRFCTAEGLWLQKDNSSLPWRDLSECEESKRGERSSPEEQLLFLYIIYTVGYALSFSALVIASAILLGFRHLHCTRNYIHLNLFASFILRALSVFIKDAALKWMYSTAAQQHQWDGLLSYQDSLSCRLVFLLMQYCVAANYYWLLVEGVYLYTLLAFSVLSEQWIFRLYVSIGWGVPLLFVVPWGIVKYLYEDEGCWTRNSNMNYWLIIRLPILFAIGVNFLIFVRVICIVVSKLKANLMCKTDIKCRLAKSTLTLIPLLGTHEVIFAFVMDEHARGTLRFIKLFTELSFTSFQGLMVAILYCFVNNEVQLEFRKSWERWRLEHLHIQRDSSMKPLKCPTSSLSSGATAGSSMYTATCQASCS
Sequence (P01275 100-127 partner limits assumed): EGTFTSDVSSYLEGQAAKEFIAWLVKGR
Assay: EC20 GLP-1(9-36) PAM cAMP assay: dose response of compound in the presence of fixed concentration of GLP-1(9-36)
Format: cell-based
Details: GLP-1R CRE-bla CHO-K1 cells, compound dose response with fixed concentration of GLP-1(9-36), read-out: EC20 GLP-1(9-36) PAM EC50
Excerpt: EC20 GLP-1(9-36) PAM cAMP Assay: Dose Response of Compound in the Presence of Fixed Concentration of GLP-1 (9-36). […]
measurement type: EC50

Exam item: Fill in the blank: the reported EC50 of `C[C@@H](NC(=O)[C@H](Cc1ccc(-c2ncc(-c3ccc(SC4CC4)cc3)cn2)cc1)NC(=O)c1ccc(C(C)(C)C)s1)C(=O)O` is ____.
Marked response: 5 to 10 µM

Exam item: Fill in the blank: the reported EC50 of `CC(C)(C)c1ccc(C(=O)N[C@@H](Cc2ccc(-c3ncc(-c4ccc(-c5ccc(C6CCCC6)cc5)cc4F)cn3)cc2)C(=O)N2CC(C(=O)O)C2)s1` is ____.
Marked response: < 0.8 µM

Exam item: Fill in the blank: the reported EC50 of `COc1ccccc1C1CCN(c2cnc(-c3ccc(C[C@H](NC(=O)c4ccc(C(C)(C)C)s4)C(=O)N4CC(C(=O)O)C4)cc3)nc2)CC1` is ____.
Marked response: 0.8 to 2.5 µM

Exam item: Fill in the blank: the reported EC50 of `Cc1cccc(C)c1-c1ccc(-c2cnc(-c3ccc(C[C@H](NC(=O)c4ccc(C(C)(C)C)s4)C(=O)N4CC(C(=O)O)C4)cc3)nc2)c(F)c1` is ____.
Marked response: < 0.8 µM

Exam item: Fill in the blank: the reported EC50 of `C[C@@H](NC(=O)[C@H](Cc1ccc(-c2ncc(-c3cnc(-c4ccccc4)nc3)cn2)cc1)NC(=O)c1ccc(C(C)(C)C)s1)C(=O)O` is ____.
Marked response: 2.5 to 5 µM

Exam item: Fill in the blank: the reported EC50 of `CCc1ccc(C#Cc2cnc(-c3ccc(C[C@H](NC(=O)c4ccc(C(C)(C)C)s4)C(=O)N[C@H](C)C(=O)O)cc3)nc2)cc1` is ____.
Marked response: 0.8 to 2.5 µM

Exam item: Fill in the blank: the reported EC50 of `CCC[C@H]1CC[C@H](C2CCN(c3cnc(-c4ccc(C[C@H](NC(=O)c5ccc(C(C)(C)C)s5)C(=O)NC5(C(=O)O)CCCC5)cc4)nc3)CC2)CC1` is ____.
Marked response: < 0.8 µM

Exam item: Fill in the blank: the reported EC50 of `CC(C)(C)c1ccc(C(=O)N[C@@H](Cc2ccc(-c3ncc(-c4ccc([C@H]5CC[C@@H](C)CC5)cc4)cn3)cc2)C(=O)O)s1` is ____.
Marked response: 2.5 to 5 µM

Exam item: Fill in the blank: the reported EC50 of `CC[C@H]1CC[C@H](c2ccc(-c3cnc(-c4ccc(C[C@H](NC(=O)c5ccc(C(C)(C)C#N)s5)C(=O)N5CC(C(=O)O)C5)cc4)nc3)cc2)CC1` is ____.
Marked response: < 0.8 µM

Exam item: Fill in the blank: the reported EC50 of `CC(C)CCCOc1ccc(-c2cnc(-c3ccc(C[C@H](NC(=O)c4ccc(CC(C)C)s4)C(=O)N4CC(C(=O)O)C4)cc3)nc2)cc1` is ____.
Marked response: 2.5 to 5 µM

Exam item: Fill in the blank: the reported EC50 of `CCc1ccc(CCc2cnc(-c3ccc(C[C@H](NC(=O)c4ccc(C(C)(C)C)s4)C(=O)N[C@H](C)C(=O)O)cc3)nc2)cc1` is ____.
Marked response: 2.5 to 5 µM

Exam item: Fill in the blank: the reported EC50 of `C[C@@H](NC(=O)[C@H](Cc1ccc(-c2ncc(-c3ccc(C4CCCCC4)cc3)cn2)cc1)NC(=O)c1ccc(C(C)(C)C)s1)C(=O)O` is ____.
Marked response: < 0.8 µM

Exam item: Fill in the blank: the reported EC50 of `CCc1ccc(/C(C)=C/c2cnc(-c3ccc(C[C@H](NC(=O)c4ccc(C(C)(C)C)s4)C(=O)N[C@H](C)C(=O)O)cc3)nc2)cc1` is ____.
Marked response: 2.5 to 5 µM

Exam item: Fill in the blank: the reported EC50 of `C[C@@H](NC(=O)[C@H](Cc1ccc(-c2ncc(-c3ccc(C4CCC(C)(C)CC4)cc3)cn2)cc1)NC(=O)c1ccc(C(C)(C)C)s1)C(=O)O` is ____.
Marked response: < 0.8 µM

Exam item: Fill in the blank: the reported EC50 of `CC1(C)CCC(c2ccc(-c3cnc(-c4ccc(C[C@H](NC(=O)c5ccc(C(C)(C)C)s5)C(=O)O)cc4)nc3)cc2)CC1` is ____.
Marked response: 0.8 to 2.5 µM

Exam item: Fill in the blank: the reported EC50 of `CCCc1ccc(-c2ccc(-c3cnc(-c4ccc(C[C@H](NC(=O)c5ccc(CC(C)C)s5)C(=O)N5CC(C(=O)O)C5)cc4)nc3)c(F)c2)cc1` is ____.
Marked response: < 0.8 µM

Exam item: Fill in the blank: the reported EC50 of `CC(C)(C)c1ccc(-c2ccc(-c3cnc(-c4ccc(C[C@H](NC(=O)c5ccc(C(C)(C)C)s5)C(=O)O)cc4)nc3)cc2)cc1` is ____.
Marked response: 2.5 to 5 µM

Exam item: Fill in the blank: the reported EC50 of `CCCc1ccc(-c2ccc(-c3cnc(-c4ccc(C[C@H](NC(=O)c5ccc(C(C)(C)C)s5)C(=O)N5CC(C(=O)O)C5)cc4)nc3)c(F)c2)cc1` is ____.
Marked response: < 0.8 µM

Exam item: Fill in the blank: the reported EC50 of `CC[C@H]1CC[C@H](c2ccc(-c3cnc(-c4ccc(C[C@H](NC(=O)c5ccc(OC(F)(F)F)cc5)C(=O)O)cc4)nc3)cc2)CC1` is ____.
Marked response: 0.8 to 2.5 µM

Exam item: Fill in the blank: the reported EC50 of `Cc1cccc(/C=C/c2cnc(-c3ccc(C[C@H](NC(=O)c4ccc(C(C)(C)C)s4)C(=O)N[C@H](C)C(=O)O)cc3)nc2)c1` is ____.
Marked response: 0.8 to 2.5 µM

Exam item: Fill in the blank: the reported EC50 of `CCC[C@H]1CC[C@H](C2CCN(c3cnc(-c4ccc(C[C@H](NC(=O)c5ccc(C(C)(C)CC)cc5)C(=O)N5CC(C(=O)O)C5)cc4)nc3)CC2)CC1` is ____.
Marked response: < 0.8 µM

Exam item: Fill in the blank: the reported EC50 of `CCC[C@H]1CC[C@H](C2CCN(c3cnc(-c4ccc(C[C@H](NC(=O)c5ccc(C(C)(C)C)s5)C(=O)N[C@H](CC)C(=O)O)cc4)nc3)CC2)CC1` is ____.
Marked response: < 0.8 µM

Exam item: Fill in the blank: the reported EC50 of `CCC[C@H]1CC[C@H](C2CCN(c3cnc(-c4ccc(C[C@H](NC(=O)c5cc6cc(OC)ccc6[nH]5)C(=O)N5CC(C(=O)O)C5)cc4)nc3)CC2)CC1` is ____.
Marked response: < 0.8 µM

====

biological target: GLP-1R (Homo sapiens, UniProt P43220); construct: host or cells: GLP-1R CRE-bla CHO-K1 cells; experiment: EC20 GLP-1(9-36) PAM cAMP assay: dose response of compound in the presence of fixed concentration of GLP-1(9-36); assay type: cell-based; conditions: dose response of compound in presence of fixed concentration of GLP-1(9-36), GLP-1R CRE-bla CHO-K1 cells, read-out: EC20 GLP-1(9-36) PAM EC50
measurement type: EC50

Exam item: Fill in the blank: the reported EC50 of `CCCCCCCOc1ccc(-c2ccc(-c3ccc(C[C@H](NC(=O)c4ccc(C(C)(C)C)cc4)C(=O)O)cc3)nn2)cc1` is ____.
Marked response: 800 to 2500 nM

Exam item: Fill in the blank: the reported EC50 of CCCCCCCOc1ccc(-c2cnc(-c3ccc(C[C@H](NC(=O)c4ccc(C(C)(C)C)cc4)C(=O)NC(C(=O)O)C(C)c4ccccc4)cc3)nc2)cc1 (stereo partly drawn) is ____.
Marked response: 800 to 2500 nM

Exam item: Fill in the blank: the reported EC50 of CCCCCCCOc1ccc(-c2cnc(-c3ccc(C[C@H](NC(=O)c4ccc(C(C)(C)C)cc4)C(=O)NC(C(=O)O)c4cccc(OC)c4)cc3)nc2)cc1 (stereo partly drawn) is ____.
Marked response: < 800 nM

Exam item: Fill in the blank: the reported EC50 of `CCCCCCCOc1ccc(-c2cnc(-c3ccc(C[C@H](NC(=O)c4ccc(Oc5ccccc5)cc4)C(=O)N[C@H](C)C(=O)O)cc3)nc2)cc1` is ____.
Marked response: < 800 nM

Exam item: Fill in the blank: the reported EC50 of CCCCCCCOc1ccc(-c2cnc(-c3ccc(C[C@H](NC(=O)c4ccc(C(C)(C)C)s4)C(=O)N4C(C(=O)O)CCC4C(=O)O)cc3)nc2)cc1 (stereo partly drawn) is ____.
Marked response: 800 to 2500 nM

Exam item: Fill in the blank: the reported EC50 of CCCCCCCOc1ccc(-c2cnc(-c3ccc(C[C@H](NC(=O)c4ccc(C(C)(C)C)s4)C(=O)NC(C(=O)O)c4ccccc4C(F)(F)F)cc3)nc2)cc1 (stereo partly drawn) is ____.
Marked response: 800 to 2500 nM

The origin of these recorded values is patent US10034886B2.
